Hi there, I'd appreciate the recorded log10(IC50) for every entry that follows.
# assayed_system: SUMO-activating enzyme (Homo sapiens, UniProt Q9UBT2)
# Sequence (Q9UBE0 whole entry): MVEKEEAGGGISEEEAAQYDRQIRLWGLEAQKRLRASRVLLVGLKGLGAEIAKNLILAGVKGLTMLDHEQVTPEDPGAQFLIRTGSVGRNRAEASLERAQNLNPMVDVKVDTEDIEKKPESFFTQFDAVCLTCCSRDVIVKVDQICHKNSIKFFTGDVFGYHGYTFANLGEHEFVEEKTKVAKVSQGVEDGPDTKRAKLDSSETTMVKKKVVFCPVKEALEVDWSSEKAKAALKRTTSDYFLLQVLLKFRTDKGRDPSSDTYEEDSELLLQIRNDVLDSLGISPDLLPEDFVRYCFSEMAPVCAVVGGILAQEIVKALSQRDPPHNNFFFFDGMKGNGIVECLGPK
# Sequence (Q9UBT2 whole entry): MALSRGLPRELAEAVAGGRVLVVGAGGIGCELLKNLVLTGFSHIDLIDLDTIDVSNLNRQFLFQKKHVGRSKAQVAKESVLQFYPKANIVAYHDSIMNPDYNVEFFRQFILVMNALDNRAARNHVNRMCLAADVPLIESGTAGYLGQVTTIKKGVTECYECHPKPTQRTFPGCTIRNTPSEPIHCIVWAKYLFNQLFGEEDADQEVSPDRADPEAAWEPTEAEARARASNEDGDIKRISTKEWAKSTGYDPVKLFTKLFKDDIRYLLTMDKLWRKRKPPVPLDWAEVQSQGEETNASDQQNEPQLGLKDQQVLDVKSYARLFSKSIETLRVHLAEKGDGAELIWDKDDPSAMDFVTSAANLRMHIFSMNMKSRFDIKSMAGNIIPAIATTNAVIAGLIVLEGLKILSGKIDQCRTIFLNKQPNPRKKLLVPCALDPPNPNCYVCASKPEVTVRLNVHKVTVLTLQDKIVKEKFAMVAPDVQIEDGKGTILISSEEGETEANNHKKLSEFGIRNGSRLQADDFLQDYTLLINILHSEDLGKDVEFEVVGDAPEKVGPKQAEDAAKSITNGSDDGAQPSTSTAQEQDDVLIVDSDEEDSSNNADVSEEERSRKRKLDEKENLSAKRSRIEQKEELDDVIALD
# assay_explanation: Inhibition of recombinant SAE (unknown origin) assessed as reduction in transfer of SUMO1 to UBC9 using SUMO1 as a substrate in presence of ATP at Km concentration by HTRF assay
# Assay type: protein-complex assay
Please interpret these as log10 of IC50 where IC50 is in nM.

Lookup: Dear colleague, I am looking for the recorded log10(IC50) of the following compound: `NS(=O)(=O)OC[C@H]1C[C@@H](Nc2ncncc2C(=O)c2ccn(Cc3cccc(Cl)n3)n2)C[C@@H]1O`
Found: 0.00

Lookup: Dear colleague, I am looking for the recorded log10(IC50) of the following compound: NS(=O)(=O)OC[C@H]1C[C@@H](Nc2ncncc2C(=O)c2cc(C(O)c3cccc(Cl)c3)cs2)C[C@@H]1O (stereo in doubt; 30)
Found: 0.00

Lookup: Dear colleague, I am looking for the recorded log10(IC50) of the following compound: NC(c1cccc(Cl)c1)c1csc(C(=O)c2cncnc2N[C@@H]2C[C@H](COS(N)(=O)=O)[C@@H](O)C2)c1 (stereo in doubt; 32)
Found: 0.18

Lookup: Dear colleague, I am looking for the recorded log10(IC50) of the following compound: `NS(=O)(=O)OC[C@H]1C[C@@H](Nc2ncncc2C(=O)c2cc(Cc3cccc(Cl)c3)c(Cl)s2)C[C@@H]1O`
Found: 0.56

Lookup: Dear colleague, I am looking for the recorded log10(IC50) of the following compound: `NS(=O)(=O)OC[C@H]1C[C@@H](Nc2ncncc2C(=O)c2ccn(Cc3ccccc3)c2)C[C@@H]1O`
Found: 0.23

Lookup: Dear colleague, I am looking for the recorded log10(IC50) of the following compound: Cc1sc(C(=O)c2cncnc2N[C@@H]2C[C@H](COS(N)(=O)=O)[C@@H](O)C2)cc1C(O)c1cccc(Cl)c1 (stereo partly specified)
Found: -0.52

Lookup: Dear colleague, I am looking for the recorded log10(IC50) of the following compound: `NS(=O)(=O)OC[C@H]1C[C@@H](Nc2ncncc2C(=O)c2ccn(Cc3ccccc3)n2)[C@@H](F)[C@@H]1O`
Found: 0.36

Lookup: Dear colleague, I am looking for the recorded log10(IC50) of the following compound: NS(=O)(=O)OC[C@H]1C[C@@H](Nc2ncncc2C(=O)c2cc(C(O)c3cccc(Cl)c3)c(Cl)s2)C[C@@H]1O (stereo partly specified)
Found: -0.52

Lookup: Dear colleague, I am looking for the recorded log10(IC50) of the following compound: `NS(=O)(=O)OC[C@H]1C[C@@H](Nc2ncncc2C(=O)c2ccn(Cc3cccc(Br)c3)c2)C[C@@H]1O`
Found: -0.22

Lookup: Dear colleague, I am looking for the recorded log10(IC50) of the following compound: `NS(=O)(=O)OC[C@H]1C[C@@H](Nc2ncncc2C(=O)c2ccn(Cc3ccccc3)n2)C(F)(F)[C@@H]1O`
Found: 0.59

Lookup: Dear colleague, I am looking for the recorded log10(IC50) of the following compound: `NS(=O)(=O)OC[C@H]1C[C@@H](Nc2ncncc2C(=O)c2ccn(Cc3ccc(Cl)cc3)n2)C[C@@H]1O`
Found: 0.71

The reported numbers originate from ChEMBL document CHEMBL4834402.
